Biological target: T1, hIL2-DM-his (human, UniProt P60568 21-153)
T1 construct: expressed in ExpiCHO-S cells, nickel-column purified; also called hIL-2 mutein containing two point mutations K64G and N90R (with a his-tag); not shown: his-tag
T1 sequence (P60568 21-153 K84G/N110R): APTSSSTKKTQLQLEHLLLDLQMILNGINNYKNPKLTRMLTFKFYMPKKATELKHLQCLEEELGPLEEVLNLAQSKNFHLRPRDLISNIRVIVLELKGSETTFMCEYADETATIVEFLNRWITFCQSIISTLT
Assay: BLI ForteBio, Ab on Protein A sensor
ASSAY READOUT: Kd (nM)
Please respond with the number in nM and leave the unit unwritten.

So for hS4B6-H6K3-hu08 (antibody, V domains shown, H6K3 with heavy chain N76D; also called H6K3-huis) VH: QVQLVQSGAEVKKPGATVKISCKVSGDTITAYYLHWVRQAPGQGLEWIGRIDPEDDSTKYAENFKNRVTITADTSTDTAYMELSSLRSEDTAVYYCTTVTFYYSRELRWFAYWGQGTLVTVSS VL: DIVLTQSPATLSLSPGERATLSCQASQDIGNYLSWYQQKPGQAPRLLIYSATSLADGIPARFSGSRSGTDYTLTISSLEPEDFAVYYCLQHYSTPYTFGQGTKLEIK , the logged Kd turned out to be 58.1

So for hS4B6-H6K3-hu07 (antibody, V domains shown, H6K3 with heavy chain N65G) VH: QVQLVQSGAEVKKPGATVKISCKVSGDTITAYYLHWVRQAPGQGLEWIGRIDPEDDSTKYAENFKGRVTITADTSTNTAYMELSSLRSEDTAVYYCTTVTFYYSRELRWFAYWGQGTLVTVSS VL: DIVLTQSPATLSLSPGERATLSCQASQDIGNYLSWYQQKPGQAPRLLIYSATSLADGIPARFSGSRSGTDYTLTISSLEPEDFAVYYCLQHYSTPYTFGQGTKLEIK , the logged Kd turned out to be 45.3

So for hS4B6-H6K3-hu12 (antibody, V domains shown, H6K3 with light chain Y71F) VH: QVQLVQSGAEVKKPGATVKISCKVSGDTITAYYLHWVRQAPGQGLEWIGRIDPEDDSTKYAENFKNRVTITADTSTNTAYMELSSLRSEDTAVYYCTTVTFYYSRELRWFAYWGQGTLVTVSS VL: DIVLTQSPATLSLSPGERATLSCQASQDIGNYLSWYQQKPGQAPRLLIYSATSLADGIPARFSGSRSGTDFTLTISSLEPEDFAVYYCLQHYSTPYTFGQGTKLEIK , the logged Kd turned out to be 32.3

So for hS4B6-H6K3-hu10 (antibody, V domains shown, H6K3 with light chain D56T) VH: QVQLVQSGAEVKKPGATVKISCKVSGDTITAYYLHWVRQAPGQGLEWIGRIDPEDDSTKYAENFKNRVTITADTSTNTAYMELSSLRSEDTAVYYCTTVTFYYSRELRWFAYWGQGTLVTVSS VL: DIVLTQSPATLSLSPGERATLSCQASQDIGNYLSWYQQKPGQAPRLLIYSATSLATGIPARFSGSRSGTDYTLTISSLEPEDFAVYYCLQHYSTPYTFGQGTKLEIK , the logged Kd turned out to be 28.3

So for hS4B6-H6K3-hu06 (antibody, V domains shown, H6K3 with heavy chain N65S) VH: QVQLVQSGAEVKKPGATVKISCKVSGDTITAYYLHWVRQAPGQGLEWIGRIDPEDDSTKYAENFKSRVTITADTSTNTAYMELSSLRSEDTAVYYCTTVTFYYSRELRWFAYWGQGTLVTVSS VL: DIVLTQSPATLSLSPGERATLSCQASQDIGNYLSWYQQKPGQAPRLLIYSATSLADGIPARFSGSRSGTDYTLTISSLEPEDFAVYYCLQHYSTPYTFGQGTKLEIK , the logged Kd turned out to be 52.5
